- System: A-375
- experiment_notes: Cytotoxicity against human A375 cells in oxic condition after 4 hrs by sulforhodamine B assay
- Format: functional, cell-based
- test_context: A-375, 4 h
measured_attribute: IC50 (µM)

INSERT INTO measurements (molecule, measured_attribute, result_number) VALUES
  ('CN(C)CCOc1ccc2[nH]c(C(=O)N3CC(CCl)c4c3cc([N+](=O)[O-])c3cc(S(N)(=O)=O)ccc43)cc2c1 (stereo unspecified)', 'IC50', 2.9);

---

- Tested on: HT-29
- experiment_notes: Cytotoxicity against human HT-29 cells in oxic condition after 4 hrs by sulforhodamine B assay
- Type: functional, cell-based
- test_context: HT-29, 4 h
measured_attribute: IC50 (µM)

INSERT INTO measurements (compound, result_number) VALUES
  ('COC(=O)c1ccc2c3c(cc([N+](=O)[O-])c2c1)N(C(=O)c1cc2cc(OC)c(OC)c(OC)c2[nH]1)CC3CCl (stereo not given)', 1.9),
  ('COc1cc2cc(C(=O)N3CC(CCl)c4c3cc([N+](=O)[O-])c3cc([N+](=O)[O-])ccc43)[nH]c2c(OC)c1OC (stereo not given)', 14),
  ('CN(C)CCOc1ccc2[nH]c(C(=O)N3CC(CCl)c4c3cc([N+](=O)[O-])c3ccc(S(N)(=O)=O)cc43)cc2c1 (stereo not given)', 9),
  ('CN(C)CCOc1ccc2[nH]c(C(=O)N3CC(CCl)c4c3cc(N)c3ccccc43)cc2c1 (stereo not given)', 5),
  ('CN(C)CCOc1ccc2[nH]c(C(=O)N3CC(CCl)c4c3cc([N+](=O)[O-])c3cc(S(N)(=O)=O)ccc43)cc2c1 (stereo not given)', 4.6),
  ('CN(C)CCOc1ccc2[nH]c(C(=O)N3CC(CCl)c4c3cc([N+](=O)[O-])c3ccc(S(C)(=O)=O)cc43)cc2c1 (stereo not given)', 0.98),
  ('CN(C)CCOc1ccc2[nH]c(C(=O)N3CC(CCl)c4c3cc([N+](=O)[O-])c3ccc(C(N)=O)cc43)cc2c1 (stereo not given)', 2.8),
  ('CC(=O)c1ccc2c([N+](=O)[O-])cc3c(c2c1)C(CCl)CN3C(=O)c1cc2cc(OCCN(C)C)ccc2[nH]1 (stereo not given)', 0.15),
  ('CN(C)CCOc1ccc2[nH]c(C(=O)N3CC(CCl)c4c3cc([N+](=O)[O-])c3cc(C(N)=O)ccc43)cc2c1 (stereo not given)', 4.1),
  ('CC(=O)c1ccc2c3c(cc([N+](=O)[O-])c2c1)N(C(=O)c1cc2cc(OCCN(C)C)ccc2[nH]1)CC3CCl (stereo not given)', 0.17),
  ('COc1cc2cc(C(=O)N3CC(CCl)c4c3cc([N+](=O)[O-])c3cccc([N+](=O)[O-])c43)[nH]c2c(OC)c1OC (stereo not given)', 34),
  ('CN(C)CCOc1ccc2[nH]c(C(=O)N3CC(CCl)c4c3cc(N)c3cc(C#N)ccc43)cc2c1 (stereo not given)', 17),
  ('CN(C)CCOc1ccc2[nH]c(C(=O)N3CC(CCl)c4c3cc([N+](=O)[O-])c3cc([N+](=O)[O-])ccc43)cc2c1 (stereo not given)', 0.89),
  ('COC(=O)c1ccc2c3c(cc(N)c2c1)N(C(=O)c1cc2cc(OCCN(C)C)ccc2[nH]1)CC3CCl (stereo not given)', 8.6),
  ('CN(C)CCOc1ccc2[nH]c(C(=O)N3CC(CCl)c4c3cc([N+](=O)[O-])c3cc(S(C)(=O)=O)ccc43)cc2c1 (stereo not given)', 0.97);

---

- Test system: NCI-H460
- experiment_notes: Cytotoxicity against human H460 cells in hypoxic condition after 4 hrs by sulforhodamine B assay
- Assay type: functional, cell-based
- test_context: NCI-H460, 4 h
pIC50: −log10 of the molar value.
measured_attribute: pIC50

INSERT INTO results (compound, measured_attribute, result_number) VALUES
  ('CN(C)CCOc1ccc2[nH]c(C(=O)N3CC(CCl)c4c3cc([N+](=O)[O-])c3cc(S(N)(=O)=O)ccc43)cc2c1 (stereo unspecified)', 'pIC50', 6.96);

---

- Tested on: HT-29
- experiment_notes: Hypoxic cytotoxicity ratio, IC50 for human HT-29 cells in oxic condition to IC50 for human HT-29 cells in hypoxic condition
- Type: functional
measured_attribute: Ratio IC50

INSERT INTO measurements (compound, result_number) VALUES
  ('CN(C)CCOc1ccc2[nH]c(C(=O)N3CC(CCl)c4c3cc([N+](=O)[O-])c3c([N+](=O)[O-])cccc43)cc2c1 (stereo not given)', 2.2),
  ('COc1cc2cc(C(=O)N3CC(CCl)c4c3cc([N+](=O)[O-])c3cccc([N+](=O)[O-])c43)[nH]c2c(OC)c1OC (stereo not given)', 1.2),
  ('CN(C)CCOc1ccc2[nH]c(C(=O)N3CC(CCl)c4c3cc(N)c3cc(C#N)ccc43)cc2c1 (stereo not given)', 2),
  ('COc1cc2cc(C(=O)N3CC(CCl)c4c3cc([N+](=O)[O-])c3ccc(S(C)(=O)=O)cc43)[nH]c2c(OC)c1OC (stereo not given)', 2.5),
  ('CN(C)CCOc1ccc2[nH]c(C(=O)N3CC(CCl)c4c3cc([N+](=O)[O-])c3cccc([N+](=O)[O-])c43)cc2c1 (stereo not given)', 1.3),
  ('CC(=O)c1ccc2c([N+](=O)[O-])cc3c(c2c1)C(CCl)CN3C(=O)c1cc2cc(OCCN(C)C)ccc2[nH]1 (stereo not given)', 1.1),
  ('COc1cc2cc(C(=O)N3CC(CCl)c4c3cc(N)c3ccc(S(C)(=O)=O)cc43)[nH]c2c(OC)c1OC (stereo not given)', 1),
  ('CN(C)CCOc1ccc2[nH]c(C(=O)N3CC(CCl)c4c3cc(N)c3cc(C(N)=O)ccc43)cc2c1 (stereo not given)', 1.4),
  ('CN(C)CCOc1ccc2[nH]c(C(=O)N3CC(CCl)c4c3cc([N+](=O)[O-])c3ccc(S(N)(=O)=O)cc43)cc2c1 (stereo not given)', 26),
  ('CN(C)CCOc1ccc2[nH]c(C(=O)N3CC(CCl)c4c3cc([N+](=O)[O-])c3ccc(S(C)(=O)=O)cc43)cc2c1 (stereo not given)', 1.2),
  ('COc1cc2cc(C(=O)N3CC(CCl)c4c3cc([N+](=O)[O-])c3cc(C(C)=O)ccc43)[nH]c2c(OC)c1OC (stereo not given)', 5.2),
  ('CN(C)CCOc1ccc2[nH]c(C(=O)N3CC(CCl)c4c3cc([N+](=O)[O-])c3c(S(N)(=O)=O)cccc43)cc2c1 (stereo not given)', 2.3),
  ('COc1cc2cc(C(=O)N3CC(CCl)c4c3cc([N+](=O)[O-])c3cc(S(N)(=O)=O)ccc43)[nH]c2c(OC)c1OC (stereo not given)', 3.6),
  ('COC(=O)c1ccc2c([N+](=O)[O-])cc3c(c2c1)C(CCl)CN3C(=O)c1cc2cc(OCCN(C)C)ccc2[nH]1 (stereo not given)', 1.6),
  ('CN(C)CCOc1ccc2[nH]c(C(=O)N3CC(CCl)c4c3cc([N+](=O)[O-])c3c(C#N)cccc43)cc2c1 (stereo not given)', 1.1);

---

- Test system: HT-29
- experiment_notes: Cytotoxicity against human HT-29 cells in oxic condition after 4 hrs by sulforhodamine B assay
- Type: functional, cell-based
- test_context: HT-29, 4 h
API: label(entry) gives Y if the entry's IC50 is strictly smaller than 10 µM; on equality or larger values it gives N.

INSERT INTO assay_data (compound, assigned_label) VALUES
  ('COc1cc2cc(C(=O)N3CC(CCl)c4c3cc(N)c3cc(C#N)ccc43)[nH]c2c(OC)c1OC (stereo not given)', 'N'),
  ('COc1cc2cc(C(=O)N3CC(CCl)c4c3cc([N+](=O)[O-])c3cc(S(C)(=O)=O)ccc43)[nH]c2c(OC)c1OC (stereo not given)', 'N'),
  ('COc1cc2cc(C(=O)N3CC(CCl)c4c3cc(N)c3cc(C(N)=O)ccc43)[nH]c2c(OC)c1OC (stereo not given)', 'N'),
  ('CN(C)CCOc1ccc2[nH]c(C(=O)N3CC(CCl)c4c3cc([N+](=O)[O-])c3c(C(N)=O)cccc43)cc2c1 (stereo not given)', 'N'),
  ('COc1cc2cc(C(=O)N3CC(CCl)c4c3cc([N+](=O)[O-])c3ccc(S(C)(=O)=O)cc43)[nH]c2c(OC)c1OC (stereo not given)', 'N'),
  ('CN(C)CCOc1ccc2[nH]c(C(=O)N3CC(CCl)c4c3cc([N+](=O)[O-])c3c([N+](=O)[O-])cccc43)cc2c1 (stereo not given)', 'Y'),
  ('CN(C)CCOc1ccc2[nH]c(C(=O)N3CC(CCl)c4c3cc([N+](=O)[O-])c3c(C#N)cccc43)cc2c1 (stereo not given)', 'Y'),
  ('COc1cc2cc(C(=O)N3CC(CCl)c4c3cc(N)c3cc(S(N)(=O)=O)ccc43)[nH]c2c(OC)c1OC (stereo not given)', 'N'),
  ('COc1cc2cc(C(=O)N3CC(CCl)c4c3cc(N)c3cc(S(C)(=O)=O)ccc43)[nH]c2c(OC)c1OC (stereo not given)', 'N'),
  ('CN(C)CCOc1ccc2[nH]c(C(=O)N3CC(CCl)c4c3cc(N)c3cc(S(C)(=O)=O)ccc43)cc2c1 (stereo not given)', 'N'),
  ('CN(C)CCOc1ccc2[nH]c(C(=O)N3CC(CCl)c4c3cc([N+](=O)[O-])c3c(S(N)(=O)=O)cccc43)cc2c1 (stereo not given)', 'Y'),
  ('COC(=O)c1ccc2c3c(cc([N+](=O)[O-])c2c1)N(C(=O)c1cc2cc(OCCN(C)C)ccc2[nH]1)CC3CCl (stereo not given)', 'Y'),
  ('COc1cc2cc(C(=O)N3CC(CCl)c4c3cc([N+](=O)[O-])c3cc(C#N)ccc43)[nH]c2c(OC)c1OC (stereo not given)', 'Y'),
  ('CN(C)CCOc1ccc2[nH]c(C(=O)N3CC(CCl)c4c3cc([N+](=O)[O-])c3cc(C#N)ccc43)cc2c1 (stereo not given)', 'Y'),
  ('COc1cc2cc(C(=O)N3CC(CCl)c4c3cc([N+](=O)[O-])c3c([N+](=O)[O-])cccc43)[nH]c2c(OC)c1OC (stereo not given)', 'N');
